Recorded values, source patent US20120225061A1.

- experimentalSystem: Pim1 kinase (Homo sapiens, UniProt P11309)
- Sequence (P11309 whole entry): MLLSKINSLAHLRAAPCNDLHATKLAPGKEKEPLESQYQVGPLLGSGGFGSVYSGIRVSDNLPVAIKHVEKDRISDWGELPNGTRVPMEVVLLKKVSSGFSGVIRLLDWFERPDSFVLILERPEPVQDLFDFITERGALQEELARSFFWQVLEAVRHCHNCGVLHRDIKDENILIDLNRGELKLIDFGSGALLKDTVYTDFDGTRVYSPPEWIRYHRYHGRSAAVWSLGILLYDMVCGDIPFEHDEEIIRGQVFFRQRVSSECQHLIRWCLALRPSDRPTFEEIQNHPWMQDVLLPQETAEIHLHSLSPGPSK
- experimentDescription: Pim1 AlphaScreen assay (high ATP)
assayEndpoint: pIC50
Answer as the number alone; pIC50 is minus log10 of concentration in mol/L.

- molecularString: "C[C@H]1C[C@@H](c2ccncc2NC(=O)c2ccc(F)c(-c3c(F)cc(C4CC4)cc3F)n2)C[C@@H](N)[C@]1(C)O"
  pIC50: 11.00
- molecularString: "C[C@H]1C[C@@H](c2ccncc2NC(=O)c2nc(-c3c(F)cccc3F)ccc2N)C[C@@H](O)[C@@]1(O)CF"
  pIC50: 9.17

With those in mind, consider the next compound.
QUERY: I have this compound here, `COCc1cc(F)c(-c2nc(C(=O)Nc3cnccc3[C@H]3C[C@@H](N)[C@](C)(O)[C@@H](C)C3)ccc2F)c(F)c1` , and I need its recorded pIC50.
RESULT: 10.05

* * *

- experimentalSystem: Pim1 kinase (Homo sapiens)
- experimentDescription: KinaseGlo Pim1 ATP depletion assay
- Assay type: biochemical
- testParameters: Table 4, 2.5 nM PIM1, 20 μM ATP, 40 μM BAD peptide
pIC50: −log10 of the molar value.
The threshold is inclusive: pIC50 of exactly 9 counts as Criterion met; values below receive Criterion not met.

Here are 3 molecules together with their reported answers.
- molecule: "Cc1nn(C)cc1-c1ccc(N)c(C(=O)Nc2cnccc2[C@H]2C[C@@H](O)[C@](C)(O)[C@@H](C)C2)n1 [Example 140]"
  experimentalSystem: "Pim1 kinase (Homo sapiens)"
  cat: "Criterion not met"
- molecule: "CC(=O)OC[C@]1(O)[C@H](O)C[C@H](c2ccncc2NC(=O)c2ccc(F)c(-c3c(F)cccc3F)n2)C[C@@H]1C [Example 43]"
  experimentalSystem: "Pim1 kinase (Homo sapiens)"
  cat: "Criterion met"
- molecule: "C[C@H]1C[C@@H](c2ccncc2NC(=O)c2nc(Br)ccc2N)C[C@@H](O)[C@]1(C)O [Example 38]"
  experimentalSystem: "Pim1 kinase (Homo sapiens)"
  cat: "Criterion not met"

# ---- query molecule ----
QUERY: State whether the measured pIC50 reaches 9, counting equality as reaching it, for C[C@H]1C[C@@H](c2ccncc2NC(=O)c2cccc(-c3c(F)cccc3F)n2)C[C@@H](O)[C@]1(C)O [Example 58]
RESULT: Criterion met

* * *

- Test system: KMS11 (human myeloma cell line)
- experimentDescription: Cell proliferation assay (CellTiter-Glo) in KMS11 cells
- Type: cell-based
- testParameters: KMS-11, 72 h, Table 5, 3 days, read-out: KMS11-luc EC50
Examples of compounds with documented pEC50 follow.
Answer as the number alone; pEC50 is minus log10 of concentration in mol/L.

QUERY: Please state recorded pEC50 (tested on KMS11 (human myeloma cell line)) of `CC(C)c1cc(F)c(-c2nc(C(=O)Nc3cnccc3[C@H]3C[C@@H](N)[C@](C)(O)[C@@H](C)C3)ccc2F)c(F)c1`
RESULT: 6.59

QUERY: Could you do the same for `C[C@H]1C[C@@H](c2ccncc2NC(=O)c2ccc(F)c(-c3c(F)cc(N4CCOCC4)cc3F)n2)C[C@@H](O)[C@]1(C)O` , please?
RESULT: 6.11

QUERY: Could you do the same for `C[C@H]1C[C@@H](c2ccncc2NC(=O)c2ccc(F)c(-c3c(F)cc4c(c3F)OCC4)n2)C[C@@H](N)[C@]1(C)O` , please?
RESULT: 6.76

* * *

- experimentalSystem: Pim2 kinase (Homo sapiens)
- Sequence (Q9P1W9 whole entry): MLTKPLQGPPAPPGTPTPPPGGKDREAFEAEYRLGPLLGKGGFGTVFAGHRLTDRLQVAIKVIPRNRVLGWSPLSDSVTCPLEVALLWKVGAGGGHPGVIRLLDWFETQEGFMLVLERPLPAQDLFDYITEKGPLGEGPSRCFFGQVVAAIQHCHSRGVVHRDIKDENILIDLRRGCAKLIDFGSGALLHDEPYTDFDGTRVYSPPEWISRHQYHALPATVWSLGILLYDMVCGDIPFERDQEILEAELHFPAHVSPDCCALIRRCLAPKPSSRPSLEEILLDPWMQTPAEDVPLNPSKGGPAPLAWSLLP
- experimentDescription: KinaseGlo Pim2 ATP depletion assay
- Type: biochemical
- testParameters: Table 4, 5 nM PIM2, 4 μM ATP, 10 μM BAD peptide
assayEndpoint: log10 IC50 (log10 of the value in nM)
Response schema: value (number) is log10 of IC50 in units of nM.

QUERY: I have this molecule here, `C[C@@H]1C[C@H](c2ccncc2NC(=O)c2ccnc(-c3c(F)cccc3F)n2)C[C@H](O)[C@]1(O)CO` , and I need its recorded log10 IC50.
RESULT: 3.46

QUERY: Could you do the same for `C[C@H]1C[C@@H](c2ccncc2NC(=O)c2ccc(F)c(-c3ccc(F)c(F)c3)n2)C[C@@H](O)[C@]1(C)O` , please?
RESULT: 1.97

QUERY: Could you do the same for `C[C@H]1C[C@@H](c2ccncc2NC(=O)c2ccc(F)c(-c3c(F)ccc(C#N)c3F)n2)C[C@@H](O)[C@]1(C)O` , please?
RESULT: 1.04

QUERY: Could you do the same for `C[C@H]1C[C@@H](c2ccncc2NC(=O)c2cncc(-c3ccccc3)n2)C[C@@H](O)[C@]1(C)O` , please?
RESULT: 3.73

QUERY: Could you do the same for `CC[C@]1(O)[C@H](O)C[C@H](c2ccncc2NC(=O)c2nc(-c3c(F)cccc3F)c(F)cc2N)C[C@@H]1C` , please?
RESULT: 0.04

QUERY: Could you do the same for `C[C@H]1C[C@@H](c2ccncc2NC(=O)c2nc(-c3ccnnc3)ccc2N)C[C@@H](O)[C@]1(C)O` , please?
RESULT: 2.89

QUERY: Could you do the same for `C[C@H]1C[C@@H](c2ccncc2NC(=O)c2csc(-c3c(F)cccc3F)n2)C[C@@H](N)[C@]1(C)O` , please?
RESULT: 1.32

QUERY: Could you do the same for `C[C@@H]1C[C@H](c2ccncc2NC(=O)c2ccc(F)c(-c3c(F)cccc3F)n2)C[C@H](N)[C@@]1(C)O` , please?
RESULT: 2.36

QUERY: Could you do the same for `CCOc1cccc(-c2ccc(N)c(C(=O)Nc3cnccc3[C@H]3C[C@@H](O)[C@](C)(O)[C@@H](C)C3)n2)n1` , please?
RESULT: 1.30

QUERY: Could you do the same for `CC[C@]1(O)[C@H](O)C[C@H](c2ccncc2NC(=O)c2ccc(F)c(-c3c(F)cccc3F)n2)C[C@@H]1C` , please?
RESULT: 0.36

QUERY: Could you do the same for `C[C@H]1C[C@@H](c2ccncc2NC(=O)c2nc(-c3ncccc3Cl)ccc2N)C[C@@H](O)[C@]1(C)O` , please?
RESULT: 0.89

QUERY: Could you do the same for `CC[C@]1(O)[C@H](O)C[C@H](c2ccncc2NC(=O)c2nc(-c3c(F)cccc3F)ccc2N)C[C@@H]1C` , please?
RESULT: 0.00

QUERY: Could you do the same for `C[C@H]1C[C@@H](c2ccncc2NC(=O)c2ccnc(-c3c(F)cccc3F)n2)C[C@@H](O)[C@@]1(O)CO` , please?
RESULT: 1.41

QUERY: Could you do the same for `C[C@H]1C[C@@H](c2ccncc2NC(=O)c2nc(-c3ccc(F)cn3)ccc2N)C[C@@H](O)[C@]1(C)O` , please?
RESULT: 1.71

* * *

- Tested on: KMS11 (human myeloma cell line)
- experimentDescription: Cell proliferation assay (CellTiter-Glo) in KMS11 cells
- Format: cell-based
- testParameters: KMS-11, 72 h, Table 5, 3 days, read-out: KMS11-luc EC50
assayEndpoint: EC50 (nM)
Give the value, in units of nM, as a plain number.

See these solved cases before continuing.
- molecularString: "C[C@H]1C[C@@H](c2ccncc2NC(=O)c2nc(-c3cccc(F)n3)c(F)cc2N)C[C@@H](O)[C@]1(C)O"
  EC50 / nM: 8030
- molecularString: "COCCOc1cc(F)c(-c2nc(C(=O)Nc3cnccc3[C@H]3C[C@@H](N)[C@](C)(O)[C@@H](C)C3)ccc2F)c(F)c1"
  EC50 / nM: 57
- molecularString: "COCCCOc1cc(F)c(-c2nc(C(=O)Nc3cnccc3[C@H]3C[C@@H](N)[C@](C)(O)[C@@H](C)C3)ccc2F)c(F)c1"
  EC50 / nM: 340
- molecularString: "C[C@H]1C[C@@H](c2ccncc2NC(=O)c2ccc(F)c(-c3c(F)cc(C(F)F)cc3F)n2)C[C@@H](N)[C@]1(C)O"
  EC50 / nM: 823
- molecularString: "C[C@H]1C[C@@H](c2ccncc2NC(=O)c2ccc(F)c(-c3c(F)cccc3F)n2)C[C@@H](N)[C@]1(C)O"
  EC50 / nM: 138

QUERY: I have this compound here, `CCOc1cccc(-c2ccc(N)c(C(=O)Nc3cnccc3[C@H]3C[C@@H](O)[C@](C)(O)[C@@H](C)C3)n2)n1` , and I need its recorded EC50.
RESULT: 1390

QUERY: Could you do the same for `C[C@H]1C[C@@H](c2ccncc2NC(=O)c2ccc(F)c(-c3c(F)cc(S(C)(=O)=O)cc3F)n2)C[C@@H](O)[C@]1(C)O` , please?
RESULT: 4700

QUERY: Could you do the same for `Cc1noc(C)c1-c1cc(F)c(-c2nc(C(=O)Nc3cnccc3[C@H]3C[C@@H](N)[C@](C)(O)[C@@H](C)C3)ccc2F)c(F)c1` , please?
RESULT: 3230

QUERY: Could you do the same for `C[C@H]1C[C@@H](c2ccncc2NC(=O)c2ccc(F)c(-c3c(F)ccc(OCCO)c3F)n2)C[C@@H](N)[C@]1(C)O` , please?
RESULT: 126

QUERY: Could you do the same for `C[C@H]1C[C@@H](c2ccncc2NC(=O)c2ccc(F)c(-c3c(F)cc(C4CCOCC4)cc3F)n2)C[C@@H](N)[C@]1(C)O` , please?
RESULT: 81
